Test system: TDF
Experiment: cell number relative to DMSO (% of DMSO); higher = more cells (less growth inhibition / toxicity)
Details: concentration: 10 µM; 24 h
result.type: cell number
The reply should be a number, written without any unit.

CCCCCCCCCCCCCCCCCCOCC(COP(=O)([O-])OCC[N+](C)(C)C)OC (centres undefined); 100

QUERY: Using known records, supply cell number for CC1OC(OCC2OC(Oc3c(-c4ccc(O)c(O)c4)oc4cc(O)cc(O)c4c3=O)C(O)C(O)C2O)C(O)C(O)C1O (centres undefined)
RESULT: 102

QUERY: Return reported cell number. Input compound: CC1(NC(=O)CBr)CCC(C(C)(C)NCC(O)COc2cccc3[nH]ccc23)CC1 (racemic)
RESULT: 98.3

QUERY: Write down cell number measured for item O=C(O)CCCC=CCC1C(=O)CC(O)C1C=CC(O)CCc1ccccc1 (centres undefined) [17-Phenyl-trinor-prostaglanding E2]
RESULT: 102

QUERY: # return recorded cell number for entry CC1=C(C(=O)Nc2cc3cn[nH]c3cc2F)C(c2ccc(C(F)(F)F)cc2)CC(=O)N1 (centres undefined)
RESULT: 98.5

QUERY: Specify reported cell number for the compound shown: "CC1=NC(=NNc2ccc(S(=O)(=O)[O-])cc2S(=O)(=O)[O-])C(COP(=O)([O-])[O-])=C(C=O)C1=O.[Na+].[Na+].[Na+].[Na+]"
RESULT: 103

QUERY: Please give measured cell number of the following entry: CCC(=O)c1ccc2c(c1)N(CCCN(C)C)c1ccccc1S2.Cl [Propionylpromazine hydrochloride]
RESULT: 97.1

QUERY: State its cell number: COc1cc(C(=O)OC2CC(C)=CCCC(C)=CC(O)C2C(C)C)ccc1O (centres undefined)
RESULT: 101

QUERY: Look up and state reported cell number for COc1cc(Br)c(CC2c3cc(OC)c(OC)cc3CCN2C)cc1OC (racemic)
RESULT: 98.5

QUERY: State its cell number: "COC(=O)N=NC=C1C=[N+]([O-])c2ccccc2N1O"
RESULT: 101

QUERY: Identify measured cell number associated with CC(CC(c1ccccc1)c1ccccc1)NC(C)(C)C.Cl (centres undefined) [N-(tert-butyl)-4,4-diphenyl-2-butanamine hydrochloride]
RESULT: 97.5

* * *

Tested on: HCC1569
Experiment: cell number relative to DMSO (% of DMSO); higher = more cells (less growth inhibition / toxicity)
Details: concentration: 10 µM; 24 h
Parameter threshold = 100. Response is T when cell number meets or exceeds it, else F.

QUERY: Quick check: does NC(Cc1ccc(O)c(O)c1)C(=O)O (stereo not drawn) have cell number greater than or equal to 100?
RESULT: F

QUERY: Can CNC1(C)C2CCC(C2)C1(C)C.Cl (stereo not drawn) [Mecamylamine hydrochloride] be said to have cell number at or above 100?
RESULT: T

* * *

Tested on: HCC1569
Test: H1.0 immunofluorescence intensity relative to DMSO (% of DMSO); higher = stronger H1.0 induction, active = 140 or more
Conditions: concentration: 10 µM; 24 h
As shown below, each of these molecules has a reported H1.0 immunofluorescence intensity value.
Reply: number alone, nothing else.

Here is how some molecules turned out for H1.0 immunofluorescence intensity.
CC(C)CC(NC(=O)C(Cc1c[nH]c2ccccc12)NC(=O)C(Cc1ccc(O)cc1)NC(=O)C(CO)NC(=O)C(Cc1c[nH]c2ccccc12)NC(=O)C(Cc1cnc[nH]1)NC(=O)C1CCC(=O)N1)C(=O)NC(CCCN=C(N)N)C(=O)N1CCCC1C(=O)NCC(N)=O (stereo not drawn) [Triptorelin]; 103
COC(=O)C1C(O)CCC2CN3CCc4c([nH]c5ccccc45)C3CC21.Cl (stereo not drawn) [Rauwolscine hydrochloride]; 103

QUERY: Please look at this molecule and report its H1.0 immunofluorescence intensity: CCCCCC(O)C=CC1C(O)CC(=O)C1CC=CCCCC(=O)O (stereo not drawn) [Prostaglandin E2]
RESULT: 100

* * *

System: HCC1569
Assay: cell number relative to DMSO (% of DMSO); higher = more cells (less growth inhibition / toxicity)
Settings: concentration: 10 µM; 24 h
Entries and their measured cell number follow.

QUERY: Using the record for CC(=O)OC1(C(C)=O)CCC2C3CC(C)C4=CC(=O)CCC4(C)C3CCC21C (stereo unspecified) [Medroxyprogesterone 17-Acetate] , state its measured cell number.
RESULT: 105

QUERY: For CN1Cc2c(N)cccc2C(c2ccccc2)C1.O=C(O)C=CC(=O)O (stereo unspecified) [Nomifensine maleate] , write its cell number.
RESULT: 102

QUERY: Determine its reported cell number: "O=C1Cc2c([nH]c3ccc([N+](=O)[O-])cc23)-c2ccccc2N1"
RESULT: 82.4

QUERY: State its cell number for this compound: NC(N)=NC(CCC(=O)O)C(=O)O (stereo unspecified)
RESULT: 104

QUERY: Give the value of cell number reported for the following: "N=C(N)N1CCc2ccccc2C1"
RESULT: 103

QUERY: Give a short answer stating reported cell number for "CC1=NN(c2ccc(C(=O)O)cc2)C(=O)/C1=C\c1ccc(-c2cc(C)c(C)cc2[N+](=O)[O-])o1" .
RESULT: 89.5

QUERY: Determine its reported cell number: Cl.Cl.c1ccc2c3c([nH]c2c1)C1C2CCC(C4CCCNC42)N1CC3 (stereo unspecified)
RESULT: 99.8

QUERY: Tell me measured cell number for CN(C)CCOC(c1ccccc1)c1ccccc1.Cl [Diphenhydramine hydrochloride] please.
RESULT: 100

QUERY: Supply recorded cell number for Cl.N=C(N)c1ccccc1 [Benzamidine hydrochloride] here.
RESULT: 100

QUERY: Determine its reported cell number: "O=C(C=Cc1ccc(O)c(O)c1)OCCc1ccccc1"
RESULT: 74.8

QUERY: Look up and state reported cell number for CC1CCC2(C(=O)O)CCC3(C)C(=CCC4C5(C)CC(O)C(O)C(C)(CO)C5CCC43C)C2C1C (stereo unspecified)
RESULT: 104

* * *

Test system: HCC1569
Experiment: cell number relative to DMSO (% of DMSO); higher = more cells (less growth inhibition / toxicity)
Conditions: concentration: 10 µM; 24 h
Measured cell number of individual entries

O=C(C=Cc1ccc(O)c(O)c1)OC1CC(O)(C(=O)O)CC(O)C1O (centres undefined); 100
Cc1cnc(NC(=O)C2=C([O-])c3ccccc3S(=O)(=O)N2C)s1.[Na+] [Meloxicam sodium]; 102
CCN(CC)Cc1ccc(C(=O)N(CCc2ccccc2OC)[C@@H]2CCNC2)cc1.Cl.Cl; 98.5

QUERY: Supply cell number value. Item: CN(C)CCOC(=O)COc1ccc(Cl)cc1.Cl [Centrophenoxine hydrochloride]
RESULT: 101

* * *

System: HCC1569
Test: cell number relative to DMSO (% of DMSO); higher = more cells (less growth inhibition / toxicity)
Conditions: concentration: 10 µM; 24 h
result.type: cell number
In your answer, state the number alone without any accompanying words.

COc1ccccc1N1CCN(CCCNc2cc(=O)n(C)c(=O)n2C)CC1.Cl [Urapidil hydrochloride]; 101

Could you now consider this next compound?
QUERY: Assign cell number to the following record: Cl.NCC(O)C1CCCCCCC1 (stereo not given) [2-Cyclooctyl-2-hydroxyethylamine hydrochloride]
RESULT: 101

* * *

System: TDF
Experiment: cell number relative to DMSO (% of DMSO); higher = more cells (less growth inhibition / toxicity)
Conditions: concentration: 10 µM; 24 h
Overview of reported cell number across a group of molecules:
When you answer, write just the number.

Answered cases to consult:
COc1cccc2c1C1CN(CCCCn3c(=O)[nH]c4c(sc5ncc(-c6ccccc6)nc54)c3=O)CC1CO2.Cl (stereo not given) [Fiduxosin hydrochloride]; 103
NC(=O)c1cccc(N)c1 [3-aminobenzamide]; 102
COc1cc(/C=C/C(=O)O)ccc1O [Ferulic acid]; 97.3

QUERY: Answer with the recorded cell number of COC(=O)C1=C(C)NC(C)=C(C(=O)OCCCN2CCC(c3ccccc3)(c3ccccc3)CC2)C1c1cccc([N+](=O)[O-])c1 (stereo not given) [Niguldipine] only.
RESULT: 99

QUERY: Answer with the recorded cell number of CC(=O)C1(O)CCC2C3CCC4=CC(=O)CCC4(C)C3CCC21C (stereo not drawn) [17alpha-hydroxyprogesterone] only.
RESULT: 98.3

* * *

System: HCC1569
Assay: H1.0 immunofluorescence intensity relative to DMSO (% of DMSO); higher = stronger H1.0 induction, active = 140 or more
Details: concentration: 10 µM; 24 h
H1.0 immunofluorescence intensity values, listed per item
Give the figure only, with no unit attached.

CCCCCCCCCCCCCCSCC(=O)O; 102
CCCCCC(O)C=CC1C2CC(CO2)C1CC=CCCCC(=O)O (stereo not drawn); 99.9

QUERY: Identify H1.0 immunofluorescence intensity associated with the compound O=Cc1c2[nH]c3ccccc3c2cc2[nH]c3ccccc3c12 [6-Formylindolo [3,2-B] carbazole]
RESULT: 100
